Measured values drawn from patent US20100173834A1 for this set.

# ASSAYED TARGET: hMC5-R (Homo sapiens, UniProt P33032)
# Sequence (P33032 whole entry): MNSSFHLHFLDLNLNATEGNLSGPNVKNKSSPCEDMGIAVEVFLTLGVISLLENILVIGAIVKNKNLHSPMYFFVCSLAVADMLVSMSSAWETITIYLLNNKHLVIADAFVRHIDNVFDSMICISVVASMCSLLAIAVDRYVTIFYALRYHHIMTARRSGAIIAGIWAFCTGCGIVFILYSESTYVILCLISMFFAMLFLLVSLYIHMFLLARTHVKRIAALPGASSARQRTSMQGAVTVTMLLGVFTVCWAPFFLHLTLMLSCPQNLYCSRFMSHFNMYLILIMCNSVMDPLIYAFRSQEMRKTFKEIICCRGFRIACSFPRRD
# TEST METHOD NOTES: Cyclic AMP bioassay, hMC5-R
Where a SMILES comes first, the peptide text is derived from it. Bridges are numbered along the chain shown (N, C = ends). [ ]: non-standard residue; d: D form.
Each entry below lists one item and its recorded pEC50 value.
Value format note: pEC50 is -log10 of concentration (mol/L); just state the number.

{"columns": ["COMPOUND", "MEASURED VALUE"],
 "data": [
  ["CC(=O)N[C@@H](Cc1cccc2ccccc12)C(=O)N[C@@H](CCCNC(=N)N)C(=O)N[C@H]1CSSC[C@@H](C(N)=O)NC(=O)[C@H](Cc2c[nH]c3ccccc23)NC(=O)[C@H](CCCNC(=N)N)NC(=O)[C@@H](Cc2ccccc2)NC(=O)[C@H](Cc2c[nH]cn2)NC(=O)[C@@H](C)NC1=O", 5.88],
  ["CC(=O)N[C@@H](Cc1ccc(O)cc1)C(=O)N[C@@H](CCCNC(=N)N)C(=O)N[C@H]1CSSC[C@@H](C(N)=O)NC(=O)[C@H](Cc2c[nH]c3ccccc23)NC(=O)[C@H](CCCNC(=N)N)NC(=O)[C@@H](Cc2ccccc2)NC(=O)[C@H](Cc2c[nH]cn2)NC(=O)[C@@H](C)NC1=O", 5.81],
  ["CC(=O)N[C@@H](Cc1c[nH]c2ccccc12)C(=O)N[C@@H](CCCNC(=N)N)C(=O)N[C@H]1CSSC[C@@H](C(N)=O)NC(=O)[C@H](Cc2c[nH]c3ccccc23)NC(=O)[C@H](CCCNC(=N)N)NC(=O)[C@@H](Cc2ccccc2)NC(=O)[C@H](Cc2c[nH]cn2)NC(=O)[C@@H](C)NC1=O (Ac-WRC[dA]H[dF]RWC-NH2; disulfide 3-9)", 5.59]
]}

Field: next compound
Prompt: Recorded pEC50 of "CC(=O)N[C@@H](Cc1ccc2ccccc2c1)C(=O)N[C@@H](CCCNC(=N)N)C(=O)N[C@H]1CSSC[C@@H](C(N)=O)NC(=O)[C@H](Cc2c[nH]c3ccccc23)NC(=O)[C@H](CCCNC(=N)N)NC(=O)[C@@H](Cc2ccccc2)NC(=O)[C@H](Cc2c[nH]cn2)NC(=O)[C@@H](C)NC1=O" , please.
Completion: 5.76

* * *

Where a SMILES comes first, the peptide text is derived from it. Bridges are numbered along the chain shown (N, C = ends). [ ]: non-standard residue; d: D form.
hMC4-R (Homo sapiens, UniProt P32245) measurements of pKi, listed per entry.
Sequence (P32245 whole entry): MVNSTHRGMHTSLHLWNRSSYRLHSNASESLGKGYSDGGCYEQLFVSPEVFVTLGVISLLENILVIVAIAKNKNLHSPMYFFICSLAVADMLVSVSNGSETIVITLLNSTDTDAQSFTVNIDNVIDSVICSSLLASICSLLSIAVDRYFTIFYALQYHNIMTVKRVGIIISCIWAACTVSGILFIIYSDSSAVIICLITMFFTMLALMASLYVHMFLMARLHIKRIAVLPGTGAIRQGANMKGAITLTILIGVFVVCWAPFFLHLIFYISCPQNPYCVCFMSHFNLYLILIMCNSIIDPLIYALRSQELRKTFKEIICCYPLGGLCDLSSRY
Scale note: pKi = -log10(concentration in M).

{"columns": ["COMPOUND", "METRIC", "MEASURED VALUE"],
 "data": [
  ["CC(=O)N[C@@H](Cc1cccc2ccccc12)C(=O)N[C@@H](CCCNC(=N)N)C(=O)N[C@H]1CSSC[C@@H](C(N)=O)NC(=O)[C@H](Cc2c[nH]c3ccccc23)NC(=O)[C@H](CCCNC(=N)N)NC(=O)[C@@H](Cc2ccccc2)NC(=O)[C@H](Cc2c[nH]cn2)NC(=O)[C@@H](C)NC1=O", "pKi", 8.82]
]}

Prompt: I would be grateful if you could share the reported pKi for CC(=O)N[C@@H](Cc1ccccc1)C(=O)N[C@@H](CCCNC(=N)N)C(=O)N[C@H]1CSSC[C@@H](C(N)=O)NC(=O)[C@H](Cc2c[nH]c3ccccc23)NC(=O)[C@H](CCCNC(=N)N)NC(=O)[C@@H](Cc2ccccc2)NC(=O)[C@H](Cc2c[nH]cn2)NC(=O)[C@@H](C)NC1=O (Ac-FRC[dA]H[dF]RWC-NH2; disulfide 3-9) .
Completion: 8.63

Prompt: I have this compound here, CC(=O)N[C@@H](Cc1c[nH]c2ccccc12)C(=O)N[C@@H](CCCNC(=N)N)C(=O)N[C@H]1CSSC[C@@H](C(N)=O)NC(=O)[C@H](Cc2c[nH]c3ccccc23)NC(=O)[C@H](CCCNC(=N)N)NC(=O)[C@@H](Cc2ccccc2)NC(=O)[C@H](Cc2c[nH]cn2)NC(=O)[C@@H](C)NC1=O (Ac-WRC[dA]H[dF]RWC-NH2; disulfide 3-9) , and I need its recorded pKi.
Completion: 8.65

Prompt: pKi lookup needed for "CC(=O)N[C@@H](Cc1c(F)c(F)c(F)c(F)c1F)C(=O)N[C@@H](CCCNC(=N)N)C(=O)N[C@H]1CSSC[C@@H](C(N)=O)NC(=O)[C@H](Cc2c[nH]c3ccccc23)NC(=O)[C@H](CCCNC(=N)N)NC(=O)[C@@H](Cc2ccccc2)NC(=O)[C@H](Cc2c[nH]cn2)NC(=O)[C@@H](C)NC1=O" , thanks.
Completion: 8.71

Prompt: Given the entry "CC(=O)N[C@@H](Cc1ccc2ccccc2c1)C(=O)N[C@@H](CCCNC(=N)N)C(=O)N[C@H]1CSSC[C@@H](C(N)=O)NC(=O)[C@H](Cc2c[nH]c3ccccc23)NC(=O)[C@H](CCCNC(=N)N)NC(=O)[C@@H](Cc2ccccc2)NC(=O)[C@H](Cc2c[nH]cn2)NC(=O)[C@@H](C)NC1=O" , report its measured pKi.
Completion: 8.69

* * *

# ASSAYED TARGET: human melanocortin 5 receptor (human) (UniProt P33032)
# Sequence (P33032 whole entry): as the sequence (P33032 whole entry) above
# TEST METHOD NOTES: cell-based or functional assay
Reported EC50, cAMP bioassay (ECL) in CHO-K1 cells expressing hMC5-R values for the following substances.
Write it as a number; the unit µM goes unstated.

Past entries and their recorded results:
{"columns": ["SUBSTANCE", "ASSAYED TARGET", "MEASURED VALUE"],
 "data": [
  ["Ac-Tyr-Arg-c(Cys-D-Ala-His-D-Phe-Arg-Trp-Cys)-NH2 (peptide)", "human melanocortin 5 receptor (human) (UniProt P33032)", 1.54],
  ["Ac-Trp-Arg-c(Cys-D-Ala-His-D-Phe-Arg-Trp-Cys)-NH2 (peptide)", "human melanocortin 5 receptor (human) (UniProt P33032)", 2.58],
  ["Ac-2-Nal-Arg-c(Cys-D-Ala-His-D-Phe-Arg-Trp-Cys)-NH2 (peptide)", "human melanocortin 5 receptor (human) (UniProt P33032)", 1.73]
]}

Now look at this entry.
Prompt: Data request, read-out EC50, cAMP bioassay (ECL) in CHO-K1 cells expressing hMC5-R, for Ac-1-Nal-Arg-c(Cys-D-Ala-His-D-Phe-Arg-Trp-Cys)-NH2 (peptide)
Completion: 1.32

* * *

Where a SMILES comes first, the peptide text is derived from it. Bridges are numbered along the chain shown (N, C = ends). [ ]: non-standard residue; d: D form.
// values below are pKi; system is hMC3-R (Homo sapiens, UniProt P41968)
Sequence (P41968 whole entry): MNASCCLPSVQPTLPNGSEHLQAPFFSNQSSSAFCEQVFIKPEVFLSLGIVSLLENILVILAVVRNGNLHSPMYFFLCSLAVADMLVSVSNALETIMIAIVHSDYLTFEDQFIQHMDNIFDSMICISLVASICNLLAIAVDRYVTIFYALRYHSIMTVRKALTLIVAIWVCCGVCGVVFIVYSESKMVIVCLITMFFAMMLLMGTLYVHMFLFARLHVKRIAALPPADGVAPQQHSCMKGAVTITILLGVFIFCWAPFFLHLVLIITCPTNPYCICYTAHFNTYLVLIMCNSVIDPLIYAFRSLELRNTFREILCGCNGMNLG
# pKi is unitless: minus log10 of the molar concentration; print number only

Solved cases (4 shown):
{"columns": ["COMPOUND", "ASSAYED TARGET", "MEASURED VALUE"],
 "data": [
  ["CC(=O)N[C@@H](Cc1c(F)c(F)c(F)c(F)c1F)C(=O)N[C@@H](CCCNC(=N)N)C(=O)N[C@H]1CSSC[C@@H](C(N)=O)NC(=O)[C@H](Cc2c[nH]c3ccccc23)NC(=O)[C@H](CCCNC(=N)N)NC(=O)[C@@H](Cc2ccccc2)NC(=O)[C@H](Cc2c[nH]cn2)NC(=O)[C@@H](C)NC1=O", "hMC3-R (Homo sapiens, UniProt P41968)", 8.88],
  ["CC(=O)N[C@@H](Cc1ccccc1)C(=O)N[C@@H](CCCNC(=N)N)C(=O)N[C@H]1CSSC[C@@H](C(N)=O)NC(=O)[C@H](Cc2c[nH]c3ccccc23)NC(=O)[C@H](CCCNC(=N)N)NC(=O)[C@@H](Cc2ccccc2)NC(=O)[C@H](Cc2c[nH]cn2)NC(=O)[C@@H](C)NC1=O (Ac-FRC[dA]H[dF]RWC-NH2; disulfide 3-9)", "hMC3-R (Homo sapiens, UniProt P41968)", 7.83],
  ["CC(=O)N[C@@H](Cc1ccc2ccccc2c1)C(=O)N[C@@H](CCCNC(=N)N)C(=O)N[C@H]1CSSC[C@@H](C(N)=O)NC(=O)[C@H](Cc2c[nH]c3ccccc23)NC(=O)[C@H](CCCNC(=N)N)NC(=O)[C@@H](Cc2ccccc2)NC(=O)[C@H](Cc2c[nH]cn2)NC(=O)[C@@H](C)NC1=O", "hMC3-R (Homo sapiens, UniProt P41968)", 7.46],
  ["CC(=O)N[C@@H](Cc1c[nH]c2ccccc12)C(=O)N[C@@H](CCCNC(=N)N)C(=O)N[C@H]1CSSC[C@@H](C(N)=O)NC(=O)[C@H](Cc2c[nH]c3ccccc23)NC(=O)[C@H](CCCNC(=N)N)NC(=O)[C@@H](Cc2ccccc2)NC(=O)[C@H](Cc2c[nH]cn2)NC(=O)[C@@H](C)NC1=O (Ac-WRC[dA]H[dF]RWC-NH2; disulfide 3-9)", "hMC3-R (Homo sapiens, UniProt P41968)", 7.38]
]}

Prompt: Which measured pKi belongs to "CC(=O)N[C@@H](Cc1cccc2ccccc12)C(=O)N[C@@H](CCCNC(=N)N)C(=O)N[C@H]1CSSC[C@@H](C(N)=O)NC(=O)[C@H](Cc2c[nH]c3ccccc23)NC(=O)[C@H](CCCNC(=N)N)NC(=O)[C@@H](Cc2ccccc2)NC(=O)[C@H](Cc2c[nH]cn2)NC(=O)[C@@H](C)NC1=O" , tested on hMC3-R (Homo sapiens, UniProt P41968)?
Completion: 7.44
